# Assay info: metabolic stability in mouse microsomes
# Format: in vitro ADME
# Condition parameters: preliminary
Assay metric: microsomal CLint (µL/min/mg)

CC1CCN(C2CCN(c3cc(C(=O)Nc4cccc(Cl)c4)cc(C(F)(F)F)c3)CC2)CC1 : 21.4

###

# System: P. falciparum strain FCB
# Assay info: P. falciparum proliferation assay, FCB strain
# Format: cell-based
# Condition parameters: Plasmodium falciparum
pEC50: −log10 of the molar value.
Assay metric: pEC50

CC1CCN(C2CCN(c3cc(C(=O)Nc4cccc(Cl)c4)cc(C(F)(F)F)c3)CC2)CC1 [Compound 32] : 6.51

###

# Tested on: P. falciparum 3D7 strain
# Assay info: cell-based P. falciparum proliferation assay, 3D7 strain
# Condition parameters: Plasmodium falciparum; chloroquine sensitive 3D7 strain; means of two experiments
pEC50: −log10 of the molar value.
If the reported pEC50 equals or exceeds 6, assign yes (1). If not, assign no (0).

O=C(Nc1ccccc1Cl)c1cc(N2CCC(N3CCCC3)CC2)cc(C(F)(F)F)c1 [Compound 6] : no (0)
O=C(Nc1cccc(C(F)(F)F)c1)c1cc(N2CCC(N3CCCCC3)CC2)cc(C(F)(F)F)c1 [Compound 31] : yes (1)
O=C(Nc1cccc(Cl)c1)c1cc(N2CCC(N3CCCC3)CC2)cc(C(F)(F)F)c1 [Compound 8] : yes (1)
Cc1cc(C(=O)Nc2cccc(Cl)c2)nc(N2CCC(N3CCCC3)CC2)n1 [Compound 28] : no (0)
CC(C)(C)c1cc(C(=O)Nc2cccc(Cl)c2)nc(N2CCC(N3CCCC3)CC2)n1 [Compound 29] : no (0)
O=C(Nc1ccc(Cl)c(Cl)c1)c1cc(N2CCC(N3CCCC3)CC2)cc(C(F)(F)F)c1 [Compound 11] : yes (1)
CCCNC(=O)c1cc(N2CCC(N3CCCC3)CC2)cc(C(F)(F)F)c1 [Compound 4] : no (0)

###

# Test system: P. falciparum strain 3BAG
# Assay info: P. falciparum proliferation assay, 3BAG strain
# Type: cell-based
# Condition parameters: Plasmodium falciparum
# Text: Currently there is a need for novel chemical scaffolds with different mechanisms of action, since most of the current approved antimalarial drugs belong to the aminoquinoline family. In order to find new chemical scaffolds, we initiated a compound screen using our in-house kinase inhibitor collection and subjected them to a cell-based of Plasmodium falciparum proliferation assay[5,6] […]
Assay metric: EC50 (nM)

CC1CCN(C2CCN(c3cc(C(=O)Nc4cccc(Cl)c4)cc(C(F)(F)F)c3)CC2)CC1 [Compound 32] : 268

###

# Test system: P. falciparum 3D7 strain
# Assay info: cell-based P. falciparum proliferation assay, 3D7 strain
# Condition parameters: Plasmodium falciparum; chloroquine sensitive 3D7 strain; means of two experiments
pEC50: −log10 of the molar value.
Assay metric: pEC50

O=C(NC1(c2cccc(C(F)(F)F)c2)CC1)c1cc(N2CCC(N3CCCC3)CC2)cc(C(F)(F)F)c1 : 6.37
N#Cc1cccc(C(=O)Nc2cc(N3CCC(N4CCCC4)CC3)cc(C(F)(F)F)c2)c1 : 6.40
O=C(Nc1ccc(Cl)cc1)c1cc(N2CCC(N3CCCC3)CC2)cc(C(F)(F)F)c1 : 6.94
O=S(=O)(Nc1cc(N2CCC(N3CCCC3)CC2)cc(C(F)(F)F)c1)c1cccc(C(F)(F)F)c1 : 5.08
FC(F)(F)c1cccc(Nc2cc(N3CCC(N4CCCC4)CC3)cc(C(F)(F)F)c2)c1 : 6.20
O=C(Nc1cccc(C(F)(F)F)c1)c1cc(N2CCC(N3CCCCC3=O)CC2)cc(C(F)(F)F)c1 : 5.83
O=C(Nc1cccc(Cl)c1)Nc1cc(N2CCC(N3CCCC3)CC2)cc(C(F)(F)F)c1 : 6.48
FC(F)(F)c1cccc(CNc2cc(N3CCC(N4CCCC4)CC3)cc(C(F)(F)F)c2)c1 : 5.70
O=C(Nc1cccc(Cl)c1)c1ccnc(N2CCC(N3CCCC3)CC2)c1 : 6.17
CC1CCCN(C2CCN(c3cc(C(=O)Nc4cccc(C(F)(F)F)c4)cc(C(F)(F)F)c3)CC2)C1 (stereo not shown) : 7.24
O=C(Nc1ccc(Br)c(Cl)c1)c1cc(N2CCC(N3CCCC3)CC2)cc(C(F)(F)F)c1 : 7.01
O=C(Nc1cccc(C(F)(F)F)c1)Nc1cc(N2CCC(N3CCCC3)CC2)cc(C(F)(F)F)c1 : 6.34
O=C(Nc1ccncn1)c1cc(N2CCC(N3CCCC3)CC2)cc(C(F)(F)F)c1 : 5.67
CC1CCN(C2CCN(c3cc(C(=O)Nc4cccc(Cl)c4)cc(C(F)(F)F)c3)CC2)CC1 : 6.85
O=C(Nc1cccc(Cl)c1)c1cc(C(F)(F)F)nc(N2CCC(N3CCCC3)CC2)n1 : 5.78
O=C(Nc1cccc(Cl)c1)c1cc(N2CCC(N3CCCCC3)CC2)cc(C(F)(F)F)c1 : 7.09
